TESTED ON: human TET2 (Homo sapiens, UniProt Q6N021)
ASSAY CONTEXT: FRET assay dose response; three independent experiments with technical duplicates
PROPERTY NAME: pIC50
As a rule, pIC50 stands for the negative log10 of the concentration, concentration in M.

Query: Entry CC(=O)N(O)CCCCCNC(=O)CCC(=O)N(O)CCCCCNC(=O)CCC(=O)N(O)CCCCCN has what pIC50?
Response: 4.34

----------
Parameter IC50: see the listing below.
TESTED ON: human TET2 (Homo sapiens, UniProt Q6N021)
ASSAY CONTEXT: MALDI assay; resynthesized/synthesized compounds, highest concentration 200 µM

// below: answered compounds
O=S(=O)(Nc1ccccc1)c1ccc(F)c2ncc(I)cc12 [compound 11]	23.9 µM
CCCCCOS(=O)(=O)c1ccc(F)c2ncc(I)cc12 [compound 6]	> 200 µM
CC(C)OS(=O)(=O)c1ccc(F)c2ncc(I)cc12 [compound 5]	> 200 µM
O=S(=O)(NCCc1ccccc1)c1ccc(F)c2ncc(I)cc12 [compound 14]	> 200 µM

Now consider the entry below.
Query: Entry O=S(=O)(Nc1cccc(O)c1)c1ccc(F)c2ncc(I)cc12 [compound 16] has what IC50?
Response: > 200 µM
